- System: HCT-116
- Assay details: Cytotoxicity against human HCT116 cells
- Assay type: functional, cell-based
Measured attribute: IC50

For this compound ( `CC(=O)O[C@@]12CO[C@@H]1C[C@H](O)[C@@]1(C)C(=O)[C@H](O)C3=C(C)[C@@H](OC(=O)[C@H](O)[C@@H](NC(=O)OC(C)(C)C)c4ccccc4)C[C@@](O)([C@@H](OC(=O)c4ccccc4)[C@H]21)C3(C)C` ), measured IC50 is 0.0012 µM

For this compound ( `CO[C@@]1(C)C[C@]23CC[C@@H]4[C@](C)([C@H](O)CC[C@@]4(C)C(=O)O)[C@H]2C=C[C@@H]1C3` ), measured IC50 is > 28.7 µM

For this compound ( `C[C@]12[C@H](O)CC[C@@](C)(C(=O)O)[C@@H]1CC[C@]13C[C@@H](C=C[C@@H]12)[C@@](C)(O)C3` ), measured IC50 is > 29.9 µM

----------
Hi there, I'd appreciate the recorded IC50 for every entry that follows.
- Study system: UniProt:Q07817
- Sequence (Q07817 whole entry): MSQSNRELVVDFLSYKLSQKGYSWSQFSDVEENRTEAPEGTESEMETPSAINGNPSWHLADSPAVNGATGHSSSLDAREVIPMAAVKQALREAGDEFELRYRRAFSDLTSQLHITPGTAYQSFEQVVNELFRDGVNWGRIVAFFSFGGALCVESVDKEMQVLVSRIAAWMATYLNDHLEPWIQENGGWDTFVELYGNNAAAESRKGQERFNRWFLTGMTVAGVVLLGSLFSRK
- Assay details: Displacement of fluorescently-tagged BH3 peptide from Bcl-XL by fluorimetric assay
- Cond: read-out: IC50
The response must be a number in µM with no trailing unit.

For this molecule ( `C[C@]12CCC[C@@](C)(C(=O)O)[C@@H]1CC[C@]13C[C@@H]4[C@H](C[C@H]12)[C@]4(CO)C3` ), measured IC50 is 220

For this molecule ( `C[C@]12CCC[C@@](C)(C(=O)O)[C@@H]1CC[C@]13C[C@@H]4[C@H](C[C@H]12)[C@]4(C)C3` ), measured IC50 is 400

For this molecule ( `C[C@]12CCC[C@@](C)(C(=O)O)[C@@H]1CC[C@]13C[C@@H](C=C[C@@H]12)[C@@](C)(O)C3` ), measured IC50 is 380
